target: CDK9/cyclinT1 complex (Homo sapiens); assay: In-vitro enzymatic inhibitory activity testing, CDK9 inhibition assay (Caliper EZ Reader II); settings: CDK9/cyclinT1 8 nM, 180 min at 27° C.
readout-name: IC50

                                   compound  readout_name      result
0  CP(C)(=O)c1cccc2c(-c3nc(N[C@H]4COC[C@@H]4O)ncc3C(F)(F)F)c[nH]c12          IC50     > 50 µM
1  FC(F)(F)c1cnc(NC2CCC3CNCC32)nc1-c1c[nH]c2nc(N3CCOCC3)ccc12 (single isomer, unassigned) [Compound 57]          IC50     > 50 µM
2  FC(F)(F)c1cnc(NC2CCCC3(CCNCC3)C2)nc1-c1c[nH]c2nc(N3CCOCC3)ccc12 (centres unmarked)          IC50  5 to 50 µM
3  CP(C)(=O)c1cccc2c(-c3nc(Nc4cn[nH]c4)ncc3C(F)(F)F)c[nH]c12          IC50  5 to 50 µM
4  C[C@@H](CO)Nc1ncc(C#N)c(-c2c[nH]c3c(P(C)(C)=O)cccc23)n1          IC50     > 50 µM
5  CP(C)(=O)c1cccc2c(-c3nc(NCC4(O)CCC4)ncc3C(F)(F)F)c[nH]c12          IC50  5 to 50 µM
6  CP(C)(=O)c1cccc2c(-c3nc(N[C@H]4CCC[C@@H]4O)ncc3C(F)(F)F)c[nH]c12          IC50  5 to 50 µM
7  C[C@@H](CO)Nc1ncc(C(F)(F)F)c(-c2c[nH]c3c(P(C)(C)=O)c(C#N)ccc23)n1          IC50     > 50 µM

----------
target: CDK2/cyclinE1 complex (Homo sapiens, UniProt P24941); assay: In-vitro enzymatic inhibitory activity testing, CDK2 inhibition assay (Caliper EZ Reader II); conditions: CDK2/cyclinE1 0.5 nM, 180 min at 27° C.
readout-name: IC50

>>> df
                                   molecule       result
0  CP(C)(=O)c1c(C#N)ccc2c(-c3nc(N[C@H]4CC[C@H](N)C4)ncc3C(F)(F)F)c[nH]c12   5 to 50 µM
1  CP(C)(=O)c1cccc2c(-c3nc(NC4(CO)CCC4)ncc3C(F)(F)F)c[nH]c12   5 to 50 µM
2  CP(C)(=O)c1cccc2c(-c3nc(N[C@H]4CC[C@@H]4O)ncc3C(F)(F)F)c[nH]c12  0.2 to 5 µM
3  CP(C)(=O)c1cccc2c(-c3nc(NC4CC(F)(F)CC4O)ncc3C(F)(F)F)c[nH]c12 (single isomer, unassigned) [Compound 191]  0.2 to 5 µM
4  CP(C)(=O)c1cccc2c(-c3nc(NCC4(O)CCOC4)ncc3C(F)(F)F)c[nH]c12 (single isomer, unassigned) [Compound 122]   5 to 50 µM
5  CP(C)(=O)c1cccc2c(-c3nc(NCC4CC4CO)ncc3C(F)(F)F)c[nH]c12 (single isomer, unassigned) [Compound 143]   5 to 50 µM
6  CP(C)(=O)c1cccc2c(-c3nc(NC(CO)CO)ncc3C(F)(F)F)c[nH]c12   5 to 50 µM

----------
Target: CDK9/cyclinT1 complex (Homo sapiens, UniProt P50750)
Sequence (P50750 whole entry, species assumed): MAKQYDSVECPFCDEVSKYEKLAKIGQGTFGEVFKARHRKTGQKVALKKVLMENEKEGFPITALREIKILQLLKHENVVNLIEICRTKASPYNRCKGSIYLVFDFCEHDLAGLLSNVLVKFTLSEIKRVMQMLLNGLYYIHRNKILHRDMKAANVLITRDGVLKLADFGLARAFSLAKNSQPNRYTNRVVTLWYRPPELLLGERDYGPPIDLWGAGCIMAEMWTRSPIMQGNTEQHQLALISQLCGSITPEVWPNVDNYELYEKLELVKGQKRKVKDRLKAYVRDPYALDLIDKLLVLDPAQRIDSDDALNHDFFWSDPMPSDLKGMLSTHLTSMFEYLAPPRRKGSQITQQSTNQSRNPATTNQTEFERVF
Sequence (O60563 whole entry partner, species assumed): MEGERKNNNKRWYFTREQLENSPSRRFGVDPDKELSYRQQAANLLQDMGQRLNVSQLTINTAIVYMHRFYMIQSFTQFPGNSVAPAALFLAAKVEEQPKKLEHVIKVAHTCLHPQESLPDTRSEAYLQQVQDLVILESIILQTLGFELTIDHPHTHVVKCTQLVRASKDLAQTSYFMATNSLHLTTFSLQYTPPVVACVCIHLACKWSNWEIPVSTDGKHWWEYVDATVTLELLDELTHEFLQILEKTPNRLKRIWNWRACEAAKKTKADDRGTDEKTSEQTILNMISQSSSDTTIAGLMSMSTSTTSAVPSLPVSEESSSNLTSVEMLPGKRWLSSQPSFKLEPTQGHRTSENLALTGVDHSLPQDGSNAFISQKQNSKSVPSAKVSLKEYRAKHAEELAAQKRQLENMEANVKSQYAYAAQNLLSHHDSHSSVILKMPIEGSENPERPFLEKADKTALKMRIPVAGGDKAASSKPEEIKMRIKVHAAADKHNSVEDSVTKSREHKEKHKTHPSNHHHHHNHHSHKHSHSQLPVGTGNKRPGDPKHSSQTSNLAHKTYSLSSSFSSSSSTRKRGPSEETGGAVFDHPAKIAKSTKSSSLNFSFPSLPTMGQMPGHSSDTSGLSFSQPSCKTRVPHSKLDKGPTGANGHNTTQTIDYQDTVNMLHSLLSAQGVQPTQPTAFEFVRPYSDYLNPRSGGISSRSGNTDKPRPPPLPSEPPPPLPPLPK
Assay: In-vitro enzymatic inhibitory activity testing, CDK9 inhibition assay (Caliper EZ Reader II)
Conditions: CDK9/cyclinT1 8 nM, 180 min at 27° C.
Description: CDK12/CyclinK was diluted in an assay buffer (80 mM MES PH 6.5, 0.01% Tween 20, 50 ug/mL BSA, 10 mM MgCl2) to afford a corresponding enzyme solution with the 2.4 concentration. […] A reaction mixture was analyzed on Caliper EZ Reader II by electrophoretic separation of a fluorogenic substrate and a phosphorylated product. Data were calculated by using GraphPad Prism version 6.0, and IC50 values were adjusted and obtained by using a nonlinear regression model of a dose response curve.
Quick list: IC50 per entry.
readout-name: IC50

>>> print(df.to_string())
                                   compound      result
0  CP(C)(=O)c1cccc2c(-c3nc(NC45CC(O)(C4)C5)ncc3C(F)(F)F)c[nH]c12  5 to 50 µM
1  Cc1noc(C)c1-c1ccc2c(-c3nc(N[C@@H]4CCC45CNC5)ncc3C(F)(F)F)c[nH]c2n1  5 to 50 µM
2  CP(C)(=O)c1cccc2c(-c3nc(NCC(O)C(F)(F)F)ncc3C(F)(F)F)c[nH]c12 (stereo not drawn) [Compound 145]     > 50 µM
3  CP(C)(=O)c1cccc2c(-c3nc(NC4(CO)COC4)ncc3C(F)(F)F)c[nH]c12     > 50 µM
4  CC1(C)COCC(Nc2ncc(C(F)(F)F)c(-c3c[nH]c4c(P(C)(C)=O)c(C#N)ccc34)n2)CN1 (stereo not drawn)     > 50 µM
5  C[C@H](CO)Nc1ncc(C(F)(F)F)c(-c2c[nH]c3c(P(C)(C)=O)cccc23)n1     > 50 µM

----------
Target: CDK2/cyclinE1 complex (Homo sapiens, UniProt P24941)
Experiment: In-vitro enzymatic inhibitory activity testing, CDK2 inhibition assay (Caliper EZ Reader II)
Conditions: CDK2/cyclinE1 0.5 nM, 180 min at 27° C.
Experimental: CDK12/CyclinK was diluted in an assay buffer (80 mM MES PH 6.5, 0.01% Tween 20, 50 ug/mL BSA, 10 mM MgCl2) to afford a corresponding enzyme solution with the 2.4 concentration. […] A reaction mixture was analyzed on Caliper EZ Reader II by electrophoretic separation of a fluorogenic substrate and a phosphorylated product. Data were calculated by using GraphPad Prism version 6.0, and IC50 values were adjusted and obtained by using a nonlinear regression model of a dose response curve.
readout-name: IC50

                                   compound                     target_or_test_system  readout_name       result
0  C[C@@H](CO)Nc1ncc(C(F)(F)F)c(-c2c[nH]c3c(P(C)(C)=O)cc(F)cc23)n1 [Compound 158]  CDK2/cyclinE1 complex (Homo sapiens, UniProt P24941)          IC50  0.2 to 5 µM
1  CC(O)[C@H](C)Nc1ncc(C(F)(F)F)c(-c2c[nH]c3c(P(C)(C)=O)cccc23)n1 (single isomer, unassigned) [Compound 130]  CDK2/cyclinE1 complex (Homo sapiens, UniProt P24941)          IC50   5 to 50 µM
2  FC(F)(F)c1cnc(NC2CCC3CNCC32)nc1-c1c[nH]c2nc(N3CCOCC3)ccc12 (single isomer, unassigned) [Compound 57]  CDK2/cyclinE1 complex (Homo sapiens, UniProt P24941)          IC50      > 50 µM
3  CP(C)(=O)c1cccc2c(-c3nc(NC4CC(F)(F)CC4O)ncc3C(F)(F)F)c[nH]c12 (single isomer, unassigned) [Compound 192]  CDK2/cyclinE1 complex (Homo sapiens, UniProt P24941)          IC50   5 to 50 µM
4  CC1(C)COCC(Nc2ncc(C(F)(F)F)c(-c3c[nH]c4nc(C#N)ccc34)n2)CN1 (single isomer, unassigned) [Compound 63]  CDK2/cyclinE1 complex (Homo sapiens, UniProt P24941)          IC50      > 50 µM
5  C[C@@H](CO)Nc1ncc(C(F)(F)F)c(-c2c[nH]c3nc(C4=CCOCC4)ccc23)n1 [Compound 181]  CDK2/cyclinE1 complex (Homo sapiens, UniProt P24941)          IC50  0.2 to 5 µM

----------
Molecular target: CDK7/cyclinH/MAT1 complex (Homo sapiens, UniProt P50613)
Sequence (P50613 whole entry, species assumed): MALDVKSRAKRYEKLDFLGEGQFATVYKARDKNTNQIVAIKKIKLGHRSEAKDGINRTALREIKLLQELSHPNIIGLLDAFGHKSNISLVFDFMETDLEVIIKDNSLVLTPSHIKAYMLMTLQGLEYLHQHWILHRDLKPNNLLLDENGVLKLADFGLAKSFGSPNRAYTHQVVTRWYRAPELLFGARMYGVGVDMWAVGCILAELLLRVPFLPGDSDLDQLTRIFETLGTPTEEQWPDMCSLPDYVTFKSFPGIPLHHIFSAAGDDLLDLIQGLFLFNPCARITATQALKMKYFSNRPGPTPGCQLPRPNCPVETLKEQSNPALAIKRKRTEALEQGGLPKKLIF
Sequence (P51946 whole entry partner, species assumed): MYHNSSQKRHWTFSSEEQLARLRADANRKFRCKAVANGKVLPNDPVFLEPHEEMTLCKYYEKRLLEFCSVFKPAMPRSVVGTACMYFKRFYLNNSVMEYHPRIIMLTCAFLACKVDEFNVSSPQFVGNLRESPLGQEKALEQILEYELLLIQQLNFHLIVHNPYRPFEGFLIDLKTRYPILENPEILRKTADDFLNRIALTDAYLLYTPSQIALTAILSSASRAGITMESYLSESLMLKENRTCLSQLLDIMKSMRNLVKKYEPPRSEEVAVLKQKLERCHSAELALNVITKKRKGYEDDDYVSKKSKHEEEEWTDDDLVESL
Sequence (P51948 whole entry partner, species assumed): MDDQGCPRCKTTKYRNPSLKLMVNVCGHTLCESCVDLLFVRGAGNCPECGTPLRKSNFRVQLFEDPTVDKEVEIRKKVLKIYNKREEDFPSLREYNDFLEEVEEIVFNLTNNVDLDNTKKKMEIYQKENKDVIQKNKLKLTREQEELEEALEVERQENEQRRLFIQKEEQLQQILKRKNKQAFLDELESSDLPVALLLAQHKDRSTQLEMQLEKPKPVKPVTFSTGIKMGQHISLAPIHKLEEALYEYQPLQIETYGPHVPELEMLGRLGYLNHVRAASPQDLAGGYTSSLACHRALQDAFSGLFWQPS
Experiment: In-vitro enzymatic inhibitory activity testing, CDK7 inhibition assay (Caliper EZ Reader II)
Settings: CDK7/cyclinH/MAT1 6 nM, 180 min at 27° C.
Experimental: CDK12/CyclinK was diluted in an assay buffer (80 mM MES PH 6.5, 0.01% Tween 20, 50 ug/mL BSA, 10 mM MgCl2) to afford a corresponding enzyme solution with the 2.4 concentration. […] A reaction mixture was analyzed on Caliper EZ Reader II by electrophoretic separation of a fluorogenic substrate and a phosphorylated product. Data were calculated by using GraphPad Prism version 6.0, and IC50 values were adjusted and obtained by using a nonlinear regression model of a dose response curve.
readout-name: IC50

                                   compound          result
0  C[C@@H](CO)Nc1ncc(C(F)(F)F)c(-c2c[nH]c3nc(C4CCCCO4)ccc23)n1 (single isomer, unassigned) [Compound 183]  0.02 to 0.2 µM
1  CP(C)(=O)c1cccc2c(-c3nc(NC[C@H]4C[C@](C)(O)C4)ncc3C(F)(F)F)c[nH]c12 [Compound 127]       < 0.02 µM
2  CP(C)(=O)c1cccc2c(-c3nc(N[C@H]4CC[C@H](N)C4)ncc3C(F)(F)F)c[nH]c12 [Compound 81]       < 0.02 µM

Attribution: patent US20240124504A1
